target: B-Raf (Homo sapiens (Human), UniProt P15056); assay: Raf kinase assay (B-Raf), [33P] incorporation into MEK1(K97R); type: biochemical; details: 1.0 μM compound; read-out: B-Raf inhibition at 1.0 μM
Sequence (P15056 whole entry): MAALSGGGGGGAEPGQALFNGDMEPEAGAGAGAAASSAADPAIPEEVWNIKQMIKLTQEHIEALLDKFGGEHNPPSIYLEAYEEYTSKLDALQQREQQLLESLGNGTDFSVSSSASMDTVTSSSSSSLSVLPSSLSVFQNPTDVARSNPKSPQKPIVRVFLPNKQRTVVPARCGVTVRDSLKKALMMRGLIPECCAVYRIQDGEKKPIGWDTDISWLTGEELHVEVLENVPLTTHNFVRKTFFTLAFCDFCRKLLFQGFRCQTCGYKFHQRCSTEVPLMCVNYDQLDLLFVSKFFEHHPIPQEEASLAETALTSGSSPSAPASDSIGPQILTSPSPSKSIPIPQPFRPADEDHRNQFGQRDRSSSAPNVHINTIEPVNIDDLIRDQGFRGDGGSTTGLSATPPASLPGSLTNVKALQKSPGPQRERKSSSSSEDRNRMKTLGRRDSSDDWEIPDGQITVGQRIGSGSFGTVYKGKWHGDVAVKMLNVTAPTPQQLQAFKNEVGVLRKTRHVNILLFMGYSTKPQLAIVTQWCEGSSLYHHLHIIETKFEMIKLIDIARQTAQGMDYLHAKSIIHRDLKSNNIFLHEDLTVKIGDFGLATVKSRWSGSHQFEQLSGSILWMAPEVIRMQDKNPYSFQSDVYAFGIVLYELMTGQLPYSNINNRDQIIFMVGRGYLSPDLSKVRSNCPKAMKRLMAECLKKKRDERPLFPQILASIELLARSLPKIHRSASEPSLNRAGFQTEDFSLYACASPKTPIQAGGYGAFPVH
MEASURED_PROPERTY: inhibition at 1 µM (%)

Examples with answers:
smiles_entry=COc1cc(-c2ccc3ncnc(Nc4cccc(S(N)(=O)=O)c4)c3c2)ccc1O assay_result=77.2
smiles_entry=c1cc(Nc2ncnc3ccc(-c4ccc5[nH]ncc5c4)cc23)c2cn[nH]c2c1 assay_result=84.4
smiles_entry=COc1cc(-c2cc3c(Nc4cc(O)ccc4Cl)ncnc3cc2OC)ccc1O assay_result=94.3

[I] COc1cc(-c2cc3c(Nc4cccc(O)c4)ncnc3cc2OC)ccc1O
[II] COc1ccc(-c2ccc3ncnc(Nc4cccc5[nH]ncc45)c3c2)cc1
Consider I and II . Which of these has its inhibition at 1 µM at a higher number? I would appreciate it if you answered with the label of your choice. I
(I: 93.8%, II: 50.7%)

The origin of these recorded values is patent US8785459B2.
